SYSTEM NAME: Acetylcholinesterase (Homo sapiens)
Sequence (P22303 32-614, species assumed): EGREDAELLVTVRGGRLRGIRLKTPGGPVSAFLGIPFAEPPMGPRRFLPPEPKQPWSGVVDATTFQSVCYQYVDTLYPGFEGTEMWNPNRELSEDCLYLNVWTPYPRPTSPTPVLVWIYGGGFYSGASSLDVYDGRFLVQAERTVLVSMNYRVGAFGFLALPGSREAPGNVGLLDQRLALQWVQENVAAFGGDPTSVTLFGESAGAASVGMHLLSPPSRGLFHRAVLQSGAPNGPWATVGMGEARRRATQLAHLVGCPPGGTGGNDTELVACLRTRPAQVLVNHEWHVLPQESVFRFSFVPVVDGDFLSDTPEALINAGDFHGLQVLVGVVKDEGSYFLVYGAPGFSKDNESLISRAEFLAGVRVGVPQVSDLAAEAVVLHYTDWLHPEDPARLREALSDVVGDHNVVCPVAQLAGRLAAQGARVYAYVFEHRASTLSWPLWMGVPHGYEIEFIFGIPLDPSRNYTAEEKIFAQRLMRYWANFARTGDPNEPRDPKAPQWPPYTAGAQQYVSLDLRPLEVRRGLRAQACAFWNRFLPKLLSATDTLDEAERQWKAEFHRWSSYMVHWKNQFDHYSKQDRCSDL
ASSAY NOTES: biochemical
CONDITION INFO: read-out: %AChE Inhibition (mean ± SEM)
ENDPOINT: inhibition at 250 µg/mL (%)
Unit % implied. Number only.

Please review the following examples before continuing.
# input Give the reported inhibition at 250 µg/mL for this compound. S=C(NC(c1ccccn1)C(Cc1ccccc1)Cc1ccccc1)NC(c1ccccn1)C(Cc1ccccc1)Cc1ccccc1 (stereo not shown)
# output 46.1

# input Give the reported inhibition at 250 µg/mL for this compound. Cc1ccc(NC(=S)Nc2ccccc2)c(C)c1
# output 45.1

Continuing:
# input Give the reported inhibition at 250 µg/mL for this compound. Fc1ccccc1NC(=S)Nc1ccccc1
# output 56.3

# input Give the reported inhibition at 250 µg/mL for this compound. S=C(Nc1ccccc1)NC(c1ccccn1)C(Cc1ccccc1)Cc1ccccc1 (stereo not shown)
# output 66.5

---

SYSTEM NAME: Butyrylcholinesterase (Homo sapiens)
ASSAY NOTES: Anticholinesterase assay
Type: biochemical
CONDITION INFO: read-out: %BChE Inhibition (mean ± SEM)
Here the recorded inhibition at 500 µg/mL is given for each entry.
Unit % implied. Number only.

Please review the following examples before continuing.
# input Give the reported inhibition at 500 µg/mL for this compound. Fc1ccccc1NC(=S)Nc1ccccc1
# output 59.1

# input Give the reported inhibition at 500 µg/mL for this compound. Cc1ccc(NC(=S)Nc2ccccc2)c(C)c1
# output 60.5

# input Give the reported inhibition at 500 µg/mL for this compound. S=C(Nc1ccccc1)NC(c1ccccn1)C(Cc1ccccc1)Cc1ccccc1 (stereo not shown)
# output 63.8

API: the following record is the query input.
# input Give the reported inhibition at 500 µg/mL for this compound. S=C(NC(c1ccccn1)C(Cc1ccccc1)Cc1ccccc1)NC(c1ccccn1)C(Cc1ccccc1)Cc1ccccc1 (stereo not shown)
# output 56.3

---

Reported values: pIC50 for Butyrylcholinesterase (Homo sapiens, UniProt P06276), one per item.
Quick note: pIC50 means taking -log10 of the concentration in moles per liter.

Please review the following examples before continuing.
# input Specify the recorded pIC50 for S=C(NC(c1ccccn1)C(Cc1ccccc1)Cc1ccccc1)NC(c1ccccn1)C(Cc1ccccc1)Cc1ccccc1 (stereo not shown) , system: Butyrylcholinesterase (Homo sapiens, UniProt P06276).
# Sequence (P06276 29-602): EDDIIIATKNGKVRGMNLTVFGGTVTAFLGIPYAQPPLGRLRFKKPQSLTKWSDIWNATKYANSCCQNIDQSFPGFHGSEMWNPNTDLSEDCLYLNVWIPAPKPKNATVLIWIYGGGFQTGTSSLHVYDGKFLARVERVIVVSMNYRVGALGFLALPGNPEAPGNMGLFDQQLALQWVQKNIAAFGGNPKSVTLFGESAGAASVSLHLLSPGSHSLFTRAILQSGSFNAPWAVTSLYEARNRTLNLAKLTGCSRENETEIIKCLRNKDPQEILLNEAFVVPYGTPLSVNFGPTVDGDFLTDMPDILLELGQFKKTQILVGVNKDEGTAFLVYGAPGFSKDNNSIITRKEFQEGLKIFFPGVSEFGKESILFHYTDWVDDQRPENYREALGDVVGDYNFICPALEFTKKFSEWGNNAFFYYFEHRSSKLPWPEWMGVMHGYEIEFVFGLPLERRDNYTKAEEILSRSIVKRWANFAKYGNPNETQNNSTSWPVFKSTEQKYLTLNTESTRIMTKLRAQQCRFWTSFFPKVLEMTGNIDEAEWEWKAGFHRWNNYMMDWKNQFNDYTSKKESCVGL
# output 3.51

# input Specify the recorded pIC50 for Fc1ccccc1NC(=S)Nc1ccccc1 , system: Butyrylcholinesterase (Homo sapiens, UniProt P06276).
# output 3.39

# input Specify the recorded pIC50 for S=C(Nc1ccccc1)NC(c1ccccn1)C(Cc1ccccc1)Cc1ccccc1 (stereo not shown) , system: Butyrylcholinesterase (Homo sapiens, UniProt P06276).
# output 3.74

API: the following record is the query input.
# input Specify the recorded pIC50 for Cc1ccc(NC(=S)Nc2ccccc2)c(C)c1 , system: Butyrylcholinesterase (Homo sapiens, UniProt P06276).
# output 3.23

---

SYSTEM NAME: porcine α-amylase (Sus scrofa)
Sequence (P00690 16-511): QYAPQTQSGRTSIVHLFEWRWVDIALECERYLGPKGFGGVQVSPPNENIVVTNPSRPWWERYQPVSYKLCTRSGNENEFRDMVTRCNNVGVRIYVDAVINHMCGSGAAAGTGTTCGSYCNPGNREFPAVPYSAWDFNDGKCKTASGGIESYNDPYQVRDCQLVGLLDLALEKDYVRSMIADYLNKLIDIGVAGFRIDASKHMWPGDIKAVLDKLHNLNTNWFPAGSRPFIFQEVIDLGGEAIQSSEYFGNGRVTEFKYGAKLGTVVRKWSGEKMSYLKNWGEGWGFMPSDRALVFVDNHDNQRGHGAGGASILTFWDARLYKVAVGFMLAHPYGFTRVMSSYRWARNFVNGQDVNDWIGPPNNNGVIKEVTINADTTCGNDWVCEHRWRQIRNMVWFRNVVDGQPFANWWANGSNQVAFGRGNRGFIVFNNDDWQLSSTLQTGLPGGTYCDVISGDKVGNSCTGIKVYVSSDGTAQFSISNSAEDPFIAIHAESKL
ASSAY NOTES: biochemical
CONDITION INFO: read-out: %Inhibition (mean ± SEM), alpha amylase, concentration 125 µg/mL
Here the recorded inhibition at 125 µg/mL is given for each entry.
Unit % implied. Number only.

Please review the following examples before continuing.
# input Specify the recorded inhibition at 125 µg/mL for Cc1ccc(NC(=S)Nc2ccccc2)c(C)c1 , system: porcine α-amylase (Sus scrofa).
# output 69

# input Specify the recorded inhibition at 125 µg/mL for S=C(NC(c1ccccn1)C(Cc1ccccc1)Cc1ccccc1)NC(c1ccccn1)C(Cc1ccccc1)Cc1ccccc1 (stereo not shown) , system: porcine α-amylase (Sus scrofa).
# output 60.2

# input Specify the recorded inhibition at 125 µg/mL for S=C(Nc1ccccc1)NC(c1ccccn1)C(Cc1ccccc1)Cc1ccccc1 (stereo not shown) , system: porcine α-amylase (Sus scrofa).
# output 50.1

API: the following record is the query input.
# input Specify the recorded inhibition at 125 µg/mL for Fc1ccccc1NC(=S)Nc1ccccc1 , system: porcine α-amylase (Sus scrofa).
# output 52.1
